Taken from the supplement of paper PMC10567573.

B1: C6orf223 (parent)
chain: TLARMSRRTRGPVERAAAAAAAAA

# Variants of: B1
# procedure-details: protein stability index of a GFP-peptide fusion (GPS, HEK-293T) (PSI 1-6); higher = more stable;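 note: lentivirally expressed fusions sorted by FACS into six bins by GFP to DsRed ratio, PSI derived from sequencing read proportions per bin multiplied by bin number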
# measurement-setup: c terminus: a fixed tail appended

{"variant-label": "A18T", "protein stability index": 3.57}
{"variant-label": "A17F", "protein stability index": 1.63}
{"variant-label": "A18W", "protein stability index": 2.45}
{"variant-label": "A22L", "protein stability index": 2.4}
{"variant-label": "A23W", "protein stability index": 2.18}
{"variant-label": "A22W", "protein stability index": 2.68}
{"variant-label": "A22Y", "protein stability index": 2.66}
{"variant-label": "A18I", "protein stability index": 3.43}
